# Organism: Rattus norvegicus
# Procedure Text: DrugMatrix - Regimen: Daily Repeat
# Type: toxicity, organism-based, Sprague-Dawley
# Design: regimen Daily Repeat, gender Male, age 6-8 weeks
# Experimental Setup: in vivo, po, 10 mg/kg, 120 h, tissue Plasma, route oral GAVAGE, dose level Low, time 5 day, […]
As shown below, each of these compounds has a reported ALKALINE PHOSPHATASE value.
Endpoint Label: ALKALINE PHOSPHATASE (u/L)

compound="COCCOC(=O)C1=C(C)NC(C)=C(C(=O)OC(C)C)C1c1cccc([N+](=O)[O-])c1 (centres undefined)" endpoint_label="ALKALINE PHOSPHATASE" units_label=u/L recorded_measurement=389.33
compound="CCOC(=O)C1=C(C)NC(C)=C(C(=O)OC)C1c1cccc([N+](=O)[O-])c1 (centres undefined)" endpoint_label="ALKALINE PHOSPHATASE" units_label=u/L recorded_measurement=422.33
compound="CC(C)CC(N(C)C)C1(c2ccc(Cl)cc2)CCC1 (centres undefined)" endpoint_label="ALKALINE PHOSPHATASE" units_label=u/L recorded_measurement=363.67
compound=COc1ccc2cc([C@H](C)C(=O)O)ccc2c1 endpoint_label="ALKALINE PHOSPHATASE" units_label=u/L recorded_measurement=463.67

---

# Organism: Rattus norvegicus
# Procedure Text: DrugMatrix - Regimen: Daily Repeat
# Assay type: toxicity, organism-based, Sprague-Dawley
# Set-up: regimen Daily Repeat, gender Male, age 6-8 weeks
# Experimental Setup: in vivo, po, 0 mg/kg, 120 h, tissue Plasma, route oral GAVAGE, dose level Control, time 5 day, vehicle 100 % WATER
As shown below, each of these compounds has a reported LACTATE DEHYDROGENASE value.
Endpoint Label: LACTATE DEHYDROGENASE (u/L)

compound=CC(C)(C)c1ccc(C(=O)CCCN2CCC(OC(c3ccccc3)c3ccccc3)CC2)cc1 endpoint_label="LACTATE DEHYDROGENASE" recorded_measurement=389.5
compound="C[N+](C)(C)CCO.[Cl-] [CHOLINE CHLORIDE]" endpoint_label="LACTATE DEHYDROGENASE" recorded_measurement=544.33
compound=Nc1ccn([C@@H]2CS[C@H](CO)O2)c(=O)n1 endpoint_label="LACTATE DEHYDROGENASE" recorded_measurement=141.33
compound=CC(C)C[C@H](NC(=O)[C@@H](O)[C@H](N)Cc1ccccc1)C(=O)O endpoint_label="LACTATE DEHYDROGENASE" recorded_measurement=487.5
compound="C[C@@H]1C[C@@H]([C@H](O)CC2CC(=O)NC(=O)C2)C(=O)[C@@H](C)C1 [CYCLOHEXIMIDE]" endpoint_label="LACTATE DEHYDROGENASE" recorded_measurement=129.33
compound="ClC(Cl)Cl [CHLOROFORM]" endpoint_label="LACTATE DEHYDROGENASE" recorded_measurement=95
compound="COC(=O)C1=C(C)NC(C)=C(C(=O)OCC(C)C)C1c1ccccc1[N+](=O)[O-] (centres undefined)" endpoint_label="LACTATE DEHYDROGENASE" recorded_measurement=157
compound=COc1cc2ncnc(Nc3ccc(F)c(Cl)c3)c2cc1OCCCN1CCOCC1 endpoint_label="LACTATE DEHYDROGENASE" recorded_measurement=519.67
compound=Cc1ncc([N+](=O)[O-])n1CCO endpoint_label="LACTATE DEHYDROGENASE" recorded_measurement=95
